Biological target: Human recombinant Acetyl-CoA Carboxylase 1 (ACC1) (Homo sapiens, UniProt Q13085)
Assay: Assay Y: ACC1 inhibition, inorganic phosphate (Malachite Green)
Assay type: biochemical
Settings: Assay Y: room temperature, 3 hr, 15 min preincubation
Outcome measure: IC50 (µM)

The cases that follow already have their IC50 on record.
> print(dat)
                            chemical.smiles  test.result
1  CC(C)(C)OC(=O)NC[C@H]1CC[C@H](CNC(=O)c2ccnc(-c3ccc(CN)cc3)c2)CC1         8.23
2  CCOC(=O)NC[C@H]1CC[C@H](CNC(=O)c2cc(-c3cccc(C(N)=O)c3)nc3ccccc23)CC1         1.21

(a) CN1CCN(CCCOc2cc(C(=O)NC[C@H]3CC[C@H](CNC(=O)OC(C)(C)C)CC3)c3ccccc3n2)CC1
(b) CC(C)(C)OC(=O)NC[C@H]1CC[C@H](CNC(=O)c2cc(-c3ccc(N4CCOCC4)nc3)nc3ccccc23)CC1
Problem: Given the listed items, does a or b have the lesser reported IC50? Choose, then provide that item's label.
Solution: b
(b: 0.28 µM, a: 6.91 µM)

(P) CC(C)(C)OC(=O)NC[C@H]1CC[C@H](CNC(=O)c2cc(-c3ccc(C(N)=O)nc3)nc3ccccc23)CC1
(Q) CC(C)(C)OC(=O)NC[C@H]1CC[C@H](CNC(=O)c2ccnc(-c3ccccc3)c2)CC1
Problem: Which value of IC50 is greater, the one for P or the one for Q ? Refer to your chosen entry by its label in the reply.
Solution: Q

(a) CCOC(=O)NC[C@H]1CC[C@H](CNC(=O)c2cc(-c3cccc(OC)c3)nc3ccccc23)CC1
(b) CC(C)(C)COC(=O)NC[C@H]1CC[C@H](CNC(=O)c2cc(-c3ccncc3)nc3ccccc23)CC1
Problem: Hey, which is lower on measured IC50, a or b ? Write down the label of the entry you select.
Solution: b

(1) CCOC(=O)NC[C@H]1CC[C@H](CNC(=O)c2cc(-c3ccc(C)cc3)nc3ccccc23)CC1
(2) CCCOC(=O)NC[C@H]1CC[C@H](CNC(=O)c2cc(-c3ccncc3)nc3ccccc23)CC1
Problem: Which numeric IC50 is bigger, that of 1 or that of 2 ? // caller expects the label of the chosen entry
Solution: 1

(I) CC(C)(C)NC(=O)NC[C@H]1CC[C@H](CNC(=O)c2cc(-c3ccncc3)nc3ccccc23)CC1
(II) NS(=O)(=O)c1ccc(-c2cc(C(=O)NC[C@H]3CC[C@H](CNC(=O)O[C@H]4CCOC4)CC3)c3ccccc3n2)cc1
Problem: Two entries are listed, I and II . Which one carries the higher IC50? Pick one; state its label.
Solution: I
(I: 18.3 µM, II: 3.34 µM)

====

Biological target: Human recombinant Acetyl-CoA Carboxylase 2 (ACC2) (Homo sapiens, UniProt O00763)
Sequence (O00763 whole entry): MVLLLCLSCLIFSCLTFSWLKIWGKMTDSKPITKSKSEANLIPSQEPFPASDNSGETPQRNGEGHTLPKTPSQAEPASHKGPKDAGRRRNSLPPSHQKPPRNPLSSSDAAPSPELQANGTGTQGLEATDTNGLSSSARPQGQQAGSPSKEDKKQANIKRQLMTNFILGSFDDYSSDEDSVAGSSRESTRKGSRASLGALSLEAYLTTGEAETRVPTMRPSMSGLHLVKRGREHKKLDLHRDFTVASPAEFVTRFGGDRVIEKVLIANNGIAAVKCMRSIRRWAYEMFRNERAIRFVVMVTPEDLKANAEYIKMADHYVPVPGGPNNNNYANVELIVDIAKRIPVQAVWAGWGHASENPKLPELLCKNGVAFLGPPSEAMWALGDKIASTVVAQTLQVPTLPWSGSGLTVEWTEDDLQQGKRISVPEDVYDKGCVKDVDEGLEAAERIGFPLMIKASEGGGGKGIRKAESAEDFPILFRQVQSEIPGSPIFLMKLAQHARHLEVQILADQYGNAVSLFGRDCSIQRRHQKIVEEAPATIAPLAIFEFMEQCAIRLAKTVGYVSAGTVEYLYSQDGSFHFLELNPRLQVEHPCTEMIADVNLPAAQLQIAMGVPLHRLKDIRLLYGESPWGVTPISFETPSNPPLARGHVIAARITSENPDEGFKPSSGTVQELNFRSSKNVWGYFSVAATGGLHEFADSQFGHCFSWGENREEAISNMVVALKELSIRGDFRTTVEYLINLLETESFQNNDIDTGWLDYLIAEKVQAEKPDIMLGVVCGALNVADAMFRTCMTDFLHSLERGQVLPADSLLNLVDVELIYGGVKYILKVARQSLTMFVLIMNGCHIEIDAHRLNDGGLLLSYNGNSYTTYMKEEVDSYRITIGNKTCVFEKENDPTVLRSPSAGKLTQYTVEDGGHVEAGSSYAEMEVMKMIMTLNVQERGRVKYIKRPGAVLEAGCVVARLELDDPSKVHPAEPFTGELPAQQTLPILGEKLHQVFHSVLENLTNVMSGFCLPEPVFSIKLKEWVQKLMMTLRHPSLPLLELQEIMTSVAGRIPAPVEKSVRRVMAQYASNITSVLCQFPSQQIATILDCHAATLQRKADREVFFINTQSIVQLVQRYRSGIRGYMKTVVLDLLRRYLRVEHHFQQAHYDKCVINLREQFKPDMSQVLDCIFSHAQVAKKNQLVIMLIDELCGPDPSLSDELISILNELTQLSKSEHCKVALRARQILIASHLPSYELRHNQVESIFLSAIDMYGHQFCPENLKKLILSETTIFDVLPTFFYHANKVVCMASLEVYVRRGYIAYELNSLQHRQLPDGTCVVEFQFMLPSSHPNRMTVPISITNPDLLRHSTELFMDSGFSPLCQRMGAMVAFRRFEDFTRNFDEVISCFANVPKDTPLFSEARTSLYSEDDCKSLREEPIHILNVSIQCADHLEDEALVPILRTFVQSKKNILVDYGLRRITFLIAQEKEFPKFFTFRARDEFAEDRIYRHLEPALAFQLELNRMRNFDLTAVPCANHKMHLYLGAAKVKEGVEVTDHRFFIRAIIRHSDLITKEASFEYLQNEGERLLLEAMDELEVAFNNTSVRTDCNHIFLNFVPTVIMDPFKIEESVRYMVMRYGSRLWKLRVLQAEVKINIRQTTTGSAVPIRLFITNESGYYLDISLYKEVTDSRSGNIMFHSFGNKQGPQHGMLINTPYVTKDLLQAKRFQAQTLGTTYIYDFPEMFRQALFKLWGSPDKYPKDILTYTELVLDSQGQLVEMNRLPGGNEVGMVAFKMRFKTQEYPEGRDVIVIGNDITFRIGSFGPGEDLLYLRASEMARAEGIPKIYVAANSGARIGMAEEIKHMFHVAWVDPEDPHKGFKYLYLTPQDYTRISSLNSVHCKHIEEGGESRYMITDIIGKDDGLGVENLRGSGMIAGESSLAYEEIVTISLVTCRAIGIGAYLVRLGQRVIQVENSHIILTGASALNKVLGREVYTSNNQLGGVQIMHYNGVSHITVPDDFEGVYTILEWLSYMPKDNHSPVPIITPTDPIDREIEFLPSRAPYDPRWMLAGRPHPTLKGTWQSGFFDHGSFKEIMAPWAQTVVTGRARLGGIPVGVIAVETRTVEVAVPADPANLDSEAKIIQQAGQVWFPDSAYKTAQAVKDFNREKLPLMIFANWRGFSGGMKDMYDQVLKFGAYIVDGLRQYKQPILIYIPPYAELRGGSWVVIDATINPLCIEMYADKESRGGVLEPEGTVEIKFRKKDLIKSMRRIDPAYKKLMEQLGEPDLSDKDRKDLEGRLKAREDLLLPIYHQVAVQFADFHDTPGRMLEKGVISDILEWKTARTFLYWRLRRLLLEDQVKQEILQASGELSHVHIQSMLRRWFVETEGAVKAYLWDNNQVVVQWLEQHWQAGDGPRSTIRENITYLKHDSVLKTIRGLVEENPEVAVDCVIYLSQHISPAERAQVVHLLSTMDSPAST
Experiment: Assay Y: ACC2 inhibition, inorganic phosphate (Malachite Green)
Assay type: biochemical
Settings: Assay Y: room temperature, 3 hr, 15 min preincubation
Outcome measure: IC50 (nM)

> print(dat)
                            chemical.smiles  test.result
1  CC(C)(C)OC(=O)NC[C@H]1CC[C@H](CNS(=O)(=O)c2ccc3c(c2)OCCO3)CC1         4760
2  CC(C)(C)OC(=O)NC[C@H]1CC[C@H](CNS(=O)(=O)c2ccsc2)CC1         9490
3  CN(C)CCNc1ccc(-c2cc(C(=O)NC[C@H]3CC[C@H](CNC(=O)OC(C)(C)C)CC3)c3ccccc3n2)cn1           30
4  C[C@H](CO)Nc1ccc(-c2cc(C(=O)NC[C@H]3CC[C@H](CNC(=O)OC(C)(C)C)CC3)c3ccccc3n2)cn1           50
5  COc1cccc(-c2cc(C(=O)NC[C@H]3CC[C@H](CNC(=O)OC(C)(C)C)CC3)c3ccccc3n2)c1          310

(P) CC(C)(C)COC(=O)NC[C@H]1CC[C@H](CNC(=O)c2cc(-c3ccncc3)nc3ccccc23)CC1
(Q) C[C@@H](CO)OC(=O)NC[C@H]1CC[C@H](CNC(=O)c2cc(-c3ccc(N4CCN(C)CC4)nc3)nc3ccccc23)CC1
Problem: // pick min by IC50: P , Q Provide the label of your selected option as the answer.
Solution: P
(P: 280 nM, Q: 660 nM)

(a) CSc1ccc(-c2cc(C(=O)NC[C@H]3CC[C@H](CNC(=O)OC(C)(C)C)CC3)c3ccccc3n2)cc1
(b) CC(C)(C)OC(=O)NC[C@H]1CC[C@H](CNC(=O)c2ccnc(-c3ccc(CN)cc3)c2)CC1
(c) CC(C)(C)OC(=O)NC[C@H]1CC[C@H](CNC(=O)c2cc(N3CCN(CCO)CC3)nc3ccccc23)CC1
(d) CCOC(=O)NC[C@H]1CC[C@H](CNS(=O)(=O)c2ccc3ccccc3c2)CC1
(e) CN(C[C@H]1CC[C@H](CNC(=O)OC(C)(C)C)CC1)C(=O)c1cc(-c2ccccc2)nc2ccccc12
Problem: Please give the order of these molecules when sorted by IC50, largest value leading. Please express your ranking as an ordered list of the labels.
Solution: b, d, e, c, a
(b: 7660 nM, d: 3990 nM, e: 2300 nM, c: 1120 nM, a: 490 nM)

(P) CC(C)(C)OC(=O)NC[C@H]1CC[C@H](CNS(=O)(=O)c2ccc(-c3ccccc3)cc2)CC1
(Q) CC(C)(C)OC(=O)NC[C@H]1CC[C@H](CNC(=O)c2cc(-c3cccc(C(N)=O)c3)nc3ccccc23)CC1
(R) CC(C)(C)OC(=O)NC[C@H]1CC[C@H](CNC(=O)c2cc(N3CCC(CO)CC3)nc3ccccc23)CC1
Problem: Please list these molecules in decreasing order of IC50. Answer format: list of labels, ordered as asked.
Solution: P, R, Q

Sourced from patent US20090306133A1
